- Tested on: Wheat
- assay-procedure: Culture dish method (general screening)
- Format: in vivo
- condition-context: 100 mg/L; 7 days; root
measurement-name: inhibition rate, Wheat Root (%)
Record the value in %, omitting the unit from your answer.

The measured inhibition rate, Wheat Root associated with CON=C(C(=O)OC)c1ccccc1COc1cccc(-c2c(Cl)cncc2Cl)c1 reads 0

The measured inhibition rate, Wheat Root associated with CON=C(C(=O)OC)c1ccccc1COc1cccc(-c2ccnc(Cl)c2)c1 reads 30

The measured inhibition rate, Wheat Root associated with CON=C(C(=O)OC)c1ccccc1COc1cccc(-c2ncc(Br)cc2[N+](=O)[O-])c1 reads 0

The measured inhibition rate, Wheat Root associated with CON=C(C(=O)OC)c1ccccc1COc1cccc(-c2ccccn2)c1 reads 0

The measured inhibition rate, Wheat Root associated with CON=C(C(=O)OC)c1ccccc1COc1cc(-c2ccccn2)ccc1C(F)(F)F reads 0

The measured inhibition rate, Wheat Root associated with CON=C(C(=O)OC)c1ccccc1COc1ccc(-c2ccccn2)cc1 reads 20

The measured inhibition rate, Wheat Root associated with CON=C(C(=O)OC)c1ccccc1COc1ccc(-c2ccc(C(F)(F)F)cn2)cc1 reads 0

The measured inhibition rate, Wheat Root associated with CON=C(C(=O)OC)c1ccccc1COc1cccc(-c2cc(C)ccn2)c1 reads 0

The measured inhibition rate, Wheat Root associated with COc1cc(OC)nc(Oc2ccccc2CNc2ccc(C(=O)OC(C)C)cc2)n1 [Pyribambenz isopropyl, reference compound] reads 95

The measured inhibition rate, Wheat Root associated with CON=C(C(=O)OC)c1ccccc1COc1ccc(-c2ncc(Cl)cc2Cl)cc1 reads 50

The measured inhibition rate, Wheat Root associated with CON=C(C(=O)OC)c1ccccc1COc1cccc(-c2ccc(Cl)cn2)c1 reads 30

The measured inhibition rate, Wheat Root associated with CON=C(C(=O)OC)c1ccccc1COc1cccc(-c2ncccc2C)c1 reads 60

The measured inhibition rate, Wheat Root associated with CON=C(C(=O)OC)c1ccccc1COc1cccc(-c2cccc(C)n2)c1 reads 60

The measured inhibition rate, Wheat Root associated with CON=C(C(=O)OC)c1ccccc1COc1ccc(-c2cccc(C)n2)cc1 reads 20

The measured inhibition rate, Wheat Root associated with CON=C(C(=O)OC)c1ccccc1COc1cccc(-c2ncc(Cl)cc2Cl)c1 reads 20

The measured inhibition rate, Wheat Root associated with CON=C(C(=O)OC)c1ccccc1COc1ccc(-c2ccc(Cl)cn2)cc1 reads 50

The measured inhibition rate, Wheat Root associated with CON=C(C(=O)OC)c1ccccc1COc1ccc(-c2ccnc(Cl)c2)cc1 reads 0

The measured inhibition rate, Wheat Root associated with CON=C(C(=O)OC)c1ccccc1COc1cccc(-c2nc(Cl)c(Cl)cc2Cl)c1 reads 30

The measured inhibition rate, Wheat Root associated with CON=C(C(=O)OC)c1ccccc1COc1cccc(-c2ncc(C(F)(F)F)cc2Cl)c1 reads 50

Data origin: patent US9884823B2
